Assay: Inhibition of Haemophilus influenzae PDF assessed as formate release from fMAS peptide substrate after 20 mins by formate dehydrogenase coupled assay
Can you tell me pIC50 for the items I'm about to list?
For clarity, pIC50 is expressed as the negative log10 of concentration in mol/L.

Inquiry: # query: pIC50 of entry CC(C)OC(=O)NC(=O)[C@@H]1CCCN1C(=O)[C@H](CC1CCCC1)CN(O)C=O
Reply text: 8.33

Inquiry: Now consider O=CN(O)C[C@@H](CC1CCCC1)C(=O)N1CCC[C@H]1C(=O)NC(=O)C1CCCC1 .
Reply text: 8.21

Inquiry: Now consider O=CN(O)C[C@@H](CC1CCCC1)C(=O)N1CCC[C@H]1C(=O)NC(=O)NC1CCCCC1 .
Reply text: 8.40

* * *

Can you tell me remaining at 2 h, 2000 ng/mL for the items I'm about to list?
Test: Metabolic stability of the compound in rat blood assessed as compound remaining at 2000 ng/mL after 2 hrs
Format: ADME, tissue-based
Conditions: read-out: Stability
Form entry: value (%) — number only.

Inquiry: # query: remaining at 2 h, 2000 ng/mL of entry O=CN(O)C[C@@H](CC1CCCC1)C(=O)N1CCC[C@H]1C(=O)NC(=O)OC1CCOCC1
Reply text: 9.5

Inquiry: Now consider CC(C)(C)C(=O)NC(=O)[C@@H]1CCCN1C(=O)[C@H](CC1CCCC1)CN(O)C=O .
Reply text: 29

Inquiry: Now consider CCNC(=O)NC(=O)[C@@H]1CCCN1C(=O)[C@H](CC1CCCC1)CN(O)C=O .
Reply text: 58.6

Inquiry: Now consider CC(C)(C)OC(=O)NC(=O)[C@@H]1CCCN1C(=O)[C@H](CC1CCCC1)CN(O)C=O .
Reply text: 27.6

Inquiry: Now consider O=CN(O)C[C@@H](CC1CCCC1)C(=O)N1CCC[C@H]1C(=O)NC(=O)OC1CCCC1 .
Reply text: 0

Inquiry: Now consider CC(C)OC(=O)NC(=O)[C@@H]1CCCN1C(=O)[C@H](CC1CCCC1)CN(O)C=O .
Reply text: 0

Inquiry: Now consider O=CN(O)C[C@@H](CC1CCCC1)C(=O)N1CCC[C@H]1C(=O)NC(=O)c1ccccc1 .
Reply text: 27.2

Inquiry: Now consider O=CN(O)C[C@@H](CC1CCCC1)C(=O)N1CCC[C@H]1C(=O)NC(=O)OC1CCC1 .
Reply text: 0

Inquiry: Now consider O=CN(O)C[C@@H](CC1CCCC1)C(=O)N1CCC[C@H]1C(=O)NC(=O)OC1CCCCC1 .
Reply text: 0.4

* * *

Can you tell me remaining at 2 h, 2000 ng/mL for the items I'm about to list?
Assay: Metabolic stability of the compound in human blood assessed as compound remaining at 2000 ng/mL after 2 hrs
Format: ADME, tissue-based
Settings: read-out: Stability
Form entry: value (%) — number only.

Inquiry: # query: remaining at 2 h, 2000 ng/mL of entry O=CN(O)C[C@@H](CC1CCCC1)C(=O)N1CCC[C@H]1C(=O)NC(=O)OC1CCOCC1
Reply text: 23

Inquiry: Now consider CC(C)OC(=O)NC(=O)[C@@H]1CCCN1C(=O)[C@H](CC1CCCC1)CN(O)C=O .
Reply text: 49.6

Inquiry: Now consider CC(C)(C)C(=O)NC(=O)[C@@H]1CCCN1C(=O)[C@H](CC1CCCC1)CN(O)C=O .
Reply text: 80.6

Inquiry: Now consider O=CN(O)C[C@@H](CC1CCCC1)C(=O)N1CCC[C@H]1C(=O)NC(=O)NCCc1ccccc1 .
Reply text: 92.2

Inquiry: Now consider O=CN(O)C[C@@H](CC1CCCC1)C(=O)N1CCC[C@H]1C(=O)NC(=O)OC1CCCCC1 .
Reply text: 45.8

Inquiry: Now consider O=CN(O)C[C@@H](CC1CCCC1)C(=O)N1CCC[C@H]1C(=O)NC(=O)NC1CCCC1 .
Reply text: 103

Inquiry: Now consider CC(C)(C)OC(=O)NC(=O)[C@@H]1CCCN1C(=O)[C@H](CC1CCCC1)CN(O)C=O .
Reply text: 52

Inquiry: Now consider CC(C)NC(=O)NC(=O)[C@@H]1CCCN1C(=O)[C@H](CC1CCCC1)CN(O)C=O .
Reply text: 99.7

Inquiry: Now consider O=CN(O)C[C@@H](CC1CCCC1)C(=O)N1CCC[C@H]1C(=O)NC(=O)OC1CCC1 .
Reply text: 31.7

Inquiry: Now consider CCNC(=O)NC(=O)[C@@H]1CCCN1C(=O)[C@H](CC1CCCC1)CN(O)C=O .
Reply text: 111

Inquiry: Now consider O=CN(O)C[C@@H](CC1CCCC1)C(=O)N1CCC[C@H]1C(=O)NC(=O)OC1CCCC1 .
Reply text: 57.5

* * *

Test system: Haemophilus influenzae
Test: Antibacterial activity against Haemophilus influenzae Q1 by broth microdilution method
Type: functional
measured-parameter: MIC (mg/L)
Form entry: value (mg/L) — number only.

Inquiry: # query: MIC of entry O=CN(O)C[C@@H](CC1CCCC1)C(=O)N1CCC[C@H]1C(=O)NC(=O)NCCO
Reply text: 0.5

Inquiry: Now consider O=CN(O)C[C@@H](CC1CCCC1)C(=O)N1CCC[C@H]1C(=O)NC(=O)C1CCCCC1 .
Reply text: 0.5

Inquiry: Now consider CC(C)(C)C(=O)NC(=O)[C@@H]1CCCN1C(=O)[C@H](CC1CCCC1)CN(O)C=O .
Reply text: 2

Inquiry: Now consider O=CN(O)C[C@@H](CC1CCCC1)C(=O)N1CCC[C@H]1C(=O)NC(=O)OC1CCC1 .
Reply text: 0.5

Inquiry: Now consider O=CN(O)C[C@@H](CC1CCCC1)C(=O)N1CCC[C@H]1C(=O)NC(=O)OC1CCCC1 .
Reply text: 1

Inquiry: Now consider O=CN(O)C[C@@H](CC1CCCC1)C(=O)N1CCC[C@H]1C(=O)NC(=O)c1ccccc1 .
Reply text: 0.5

Inquiry: Now consider CC(=O)NC(=O)[C@@H]1CCCN1C(=O)[C@H](CC1CCCC1)CN(O)C=O .
Reply text: 0.25

Inquiry: Now consider COCC(=O)NC(=O)[C@@H]1CCCN1C(=O)[C@H](CC1CCCC1)CN(O)C=O .
Reply text: 0.125

Inquiry: Now consider O=CN(O)C[C@@H](CC1CCCC1)C(=O)N1CCC[C@H]1C(=O)NC(=O)NCCc1cccnc1 .
Reply text: 2

Inquiry: Now consider COC(=O)NC(=O)[C@@H]1CCCN1C(=O)[C@H](CC1CCCC1)CN(O)C=O .
Reply text: 0.125

Inquiry: Now consider O=CN(O)C[C@@H](CC1CCCC1)C(=O)N1CCC[C@H]1C(=O)NC(=O)C1CCCC1 .
Reply text: 0.25

Inquiry: Now consider NC(=O)CCNC(=O)NC(=O)[C@@H]1CCCN1C(=O)[C@H](CC1CCCC1)CN(O)C=O .
Reply text: 2

Inquiry: Now consider O=CN(O)C[C@@H](CC1CCCC1)C(=O)N1CCC[C@H]1C(=O)NC(=O)NC1CCCC1 .
Reply text: 2

Inquiry: Now consider O=CN(O)C[C@@H](CC1CCCC1)C(=O)N1CCC[C@H]1C(=O)NC(=O)C1CCC1 .
Reply text: 1

Inquiry: Now consider O=CN(O)C[C@@H](CC1CCCC1)C(=O)N1CCC[C@H]1C(=O)NC(=O)NCCCO .
Reply text: 1

Inquiry: Now consider O=CN(O)C[C@@H](CC1CCCC1)C(=O)N1CCC[C@H]1C(=O)NC(=O)OC1CCOCC1 .
Reply text: 0.5

Inquiry: Now consider O=CN(O)C[C@@H](CC1CCCC1)C(=O)N1CCC[C@H]1C(=O)NC(=O)OC1CCNCC1 .
Reply text: 16

Inquiry: Now consider O=CN(O)C[C@@H](CC1CCCC1)C(=O)N1CCC[C@H]1C(=O)NC(=O)NC1CCCCC1 .
Reply text: 4

Inquiry: Now consider CCNC(=O)NC(=O)[C@@H]1CCCN1C(=O)[C@H](CC1CCCC1)CN(O)C=O .
Reply text: 0.5

* * *

Can you tell me pIC50 for the items I'm about to list?
Test: Inhibition of Haemophilus influenzae PDF assessed as formate release from fMAS peptide substrate after 20 mins by formate dehydrogenase coupled assay
For clarity, pIC50 is expressed as the negative log10 of concentration in mol/L.

Inquiry: # query: pIC50 of entry O=CN(O)C[C@@H](CC1CCCC1)C(=O)N1CCC[C@H]1C(=O)NC(=O)NCCc1c[nH]cn1
Reply text: 8.37

Inquiry: Now consider O=CN(O)C[C@@H](CC1CCCC1)C(=O)N1CCC[C@H]1C(=O)NC(=O)NCCc1cccnc1 .
Reply text: 8.33

Inquiry: Now consider O=CN(O)C[C@@H](CC1CCCC1)C(=O)N1CCC[C@H]1C(=O)NC(=O)OC1CCNCC1 .
Reply text: 8.57

Inquiry: Now consider O=CN(O)C[C@@H](CC1CCCC1)C(=O)N1CCC[C@H]1C(=O)NC(=O)NCCc1cnccn1 .
Reply text: 8.21

Inquiry: Now consider CC(C)(C)NC(=O)NC(=O)[C@@H]1CCCN1C(=O)[C@H](CC1CCCC1)CN(O)C=O .
Reply text: 8.62

Inquiry: Now consider O=CN(O)C[C@@H](CC1CCCC1)C(=O)N1CCC[C@H]1C(=O)NC(=O)NCc1ccccc1 .
Reply text: 8.19

Inquiry: Now consider CCOC(=O)NC(=O)[C@@H]1CCCN1C(=O)[C@H](CC1CCCC1)CN(O)C=O .
Reply text: 8.11

Inquiry: Now consider O=CN(O)C[C@@H](CC1CCCC1)C(=O)N1CCC[C@H]1C(=O)NC(=O)C1CCC1 .
Reply text: 8.05

Inquiry: Now consider O=CN(O)C[C@@H](CC1CCCC1)C(=O)N1CCC[C@H]1C(=O)NC(=O)C1CCCCC1 .
Reply text: 8.28
